The measurements presented in this section are drawn from PubChem BioAssay (NCI).

System: NCI-H322M lung
Test: NCI-60 one-dose screen, 48 h
Details: 10 µM unless noted
This is part of a sample that, as a whole, favours compounds with a hit. Of some 83,000 tested, about 20% had one in any assay. Activity calls are given as the source filed them. The calls were made as follows: active = growth percent below 10; inactive = the rest.
Pick one and only one: active, inactive

[[record]]
smiles_repr = "COc1ccc2nc3cc(Cl)ccc3c(Nc3ccc(O)cc3)c2c1"
tested_system = "NCI-H322M lung"
cat = "inactive"

[[record]]
smiles_repr = "CC(C)c1ccc(/C=N/N=C(N)N)cc1"
tested_system = "NCI-H322M lung"
cat = "inactive"

[[record]]
smiles_repr = "COC(=O)[C@@H](NC(=O)NC(=O)NC(=O)CI)C(C)C"
tested_system = "NCI-H322M lung"
cat = "inactive"

[[record]]
smiles_repr = "Cn1ncc2c(Nc3ccc(O)cc3)nc(Cl)nc21"
tested_system = "NCI-H322M lung"
cat = "inactive"

[[record]]
smiles_repr = "ClC1=C(Cl)C(Cl)=C(Cl)C1=Cc1ccccc1"
tested_system = "NCI-H322M lung"
cat = "active"


Record request — test call for `COc1cc2c(cc1OCCCN1CCN(CCCOc3cc4c(cc3OC)C(=O)N3C[C@H](F)C[C@H]3C=N4)CC1)N=C[C@@H]1C[C@@H](F)CN1C2=O`
active

Record request — test call for `CCCc1cc2cc(-n3nc(C)c4c3CC(C)(C)CC4=O)cc(NC3CCSCC3)c2c(=O)[nH]1`
inactive

Record request — test call for `C[C@H]1[C@H](C)CC[C@]2(C(=O)O)CC[C@]3(C)C(=CC[C@@H]4[C@@]5(C)C/C(=C/c6cccnc6)[C@H](O)C(C)(C)[C@@H]5CC[C@]43C)[C@H]12`
active

Record request — test call for `CCOC(=O)CCC[P+](c1ccccc1)(c1ccccc1)c1ccccc1`
inactive
